Target: CDK7/CyclinH/MAT1 (Homo sapiens (Human))
Assay: CDK7/CyclinH/MAT1 kinase inhibitory activity (Caliper mobility shift)
Assay type: biochemical
As shown below, each of these compounds has a reported IC50 value.

[
  {
    "Compound": "CC1(O)CCCCC1Oc1nc(Nc2ccc(S(N)(=O)=O)cc2)ncc1C#N (single isomer, unassigned) [Example 24a]",
    "Measurement": "< 0.01 µM"
  }
]

**Query** Which IC50 is reported for this compound? N#Cc1cnc(Nc2ccc(S(N)(=O)=O)cc2)nc1N1CCCCCC1 [Example 68]
**Result** ≥ 1 µM

**Query** Returns the measured IC50 for the input compound. Input: CC(C)NS(=O)(=O)c1ccc(Nc2ncc(C(F)(F)F)c(OC3CCCC3O)n2)cc1 (single isomer, unassigned) [Example 106a]
**Result** 0.1 to 1 µM

**Query** What measured IC50 goes with [2H]C([2H])([2H])NS(=O)(=O)c1ccc(Nc2ncc(CC)c(OC3COCCC3(C)O)n2)cc1 (single isomer, unassigned) [Example 153a] ?
**Result** 0.01 to 0.1 µM

**Query** Quick one: IC50 for C[C@H]1CCCN(c2nc(Nc3ccc(S(N)(=O)=O)cc3)ncc2C#N)C1 [Example 71] ?
**Result** ≥ 1 µM

**Query** Look up IC50 for this compound: N#Cc1cnc(Nc2ccc(S(N)(=O)=O)cc2)nc1-c1ccc(O)cc1 [Example 92]
**Result** ≥ 1 µM

**Query** Given the entry O=S(=O)(NC1CCOCC1)c1ccc(Nc2ncc(Cl)c(O[C@@H]3CCC[C@@H]3O)n2)cc1 (single isomer, unassigned) [Example 130a] , report its measured IC50.
**Result** 0.1 to 1 µM

====

Target: CDK7/CyclinH/MAT1 (Homo sapiens (Human), UniProt P50613)
Sequence (P50613 whole entry): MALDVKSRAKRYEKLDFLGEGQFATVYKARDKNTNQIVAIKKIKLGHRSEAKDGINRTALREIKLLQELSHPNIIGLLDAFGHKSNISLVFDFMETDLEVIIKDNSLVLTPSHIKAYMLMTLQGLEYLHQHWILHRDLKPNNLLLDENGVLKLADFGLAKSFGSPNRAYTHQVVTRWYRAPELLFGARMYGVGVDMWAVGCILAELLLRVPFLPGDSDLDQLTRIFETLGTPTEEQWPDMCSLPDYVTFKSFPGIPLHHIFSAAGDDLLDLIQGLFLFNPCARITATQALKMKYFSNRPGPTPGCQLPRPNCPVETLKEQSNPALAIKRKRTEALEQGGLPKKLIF
Sequence (P51946 whole entry partner): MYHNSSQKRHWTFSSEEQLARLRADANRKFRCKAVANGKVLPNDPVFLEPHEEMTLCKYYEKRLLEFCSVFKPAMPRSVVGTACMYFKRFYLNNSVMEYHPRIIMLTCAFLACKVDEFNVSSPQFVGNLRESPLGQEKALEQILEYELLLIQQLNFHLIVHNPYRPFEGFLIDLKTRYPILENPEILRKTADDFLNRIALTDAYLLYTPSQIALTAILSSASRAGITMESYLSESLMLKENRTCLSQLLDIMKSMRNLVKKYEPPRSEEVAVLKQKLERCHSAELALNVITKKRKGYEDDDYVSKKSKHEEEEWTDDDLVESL
Sequence (P51948 whole entry partner): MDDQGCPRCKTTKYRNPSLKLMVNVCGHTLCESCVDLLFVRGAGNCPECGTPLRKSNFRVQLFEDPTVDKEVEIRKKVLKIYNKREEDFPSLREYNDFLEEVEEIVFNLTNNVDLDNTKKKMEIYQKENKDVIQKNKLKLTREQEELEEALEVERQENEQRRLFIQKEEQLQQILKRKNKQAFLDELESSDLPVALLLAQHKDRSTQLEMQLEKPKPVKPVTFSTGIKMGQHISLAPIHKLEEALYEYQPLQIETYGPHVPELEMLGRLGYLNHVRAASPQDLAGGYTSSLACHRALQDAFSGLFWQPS
Assay: CDK7/CyclinH/MAT1 kinase inhibitory activity (Caliper mobility shift)
Entries and their IC50 values follow.

Past entries and their recorded results:
[
  {
    "Molecule": "N#Cc1cnc(Nc2ccc(S(N)(=O)=O)cc2)nc1N1CCC[C@@H](O)C1 [Example 70]",
    "IC50": "≥ 1000 nM"
  },
  {
    "Molecule": "N#Cc1cnc(Nc2ccc(S(N)(=O)=O)cc2)nc1OC1CCCC1O (single isomer, unassigned) [Example 20b]",
    "IC50": "≥ 1000 nM"
  },
  {
    "Molecule": "CC1(O)CCCC1Oc1nc(NC2CCN(S(=O)(=O)C(F)(F)F)CC2)ncc1C#N (single isomer, unassigned) [Example 42a]",
    "IC50": "100 to 1000 nM"
  },
  {
    "Molecule": "Cn1cc(S(=O)(=O)N2CCC(Nc3ncc(Br)c(OC4CCCCC4O)n3)CC2)cn1 (single isomer, unassigned) [Example 144b]",
    "IC50": "100 to 1000 nM"
  },
  {
    "Molecule": "N#Cc1cnc(Nc2ccc(S(=O)(=O)NC3COC3)cc2)nc1N1CCCCC1 [Example 66]",
    "IC50": "≥ 1000 nM"
  }
]

**Query** Which IC50 value is on record for [2H]C([2H])([2H])NS(=O)(=O)c1ccc(Nc2ncc(C(F)(F)F)c(O[C@H]3CCCOC[C@H]3O)n2)cc1 (single isomer, unassigned) [Example 103b] ?
**Result** ≥ 1000 nM

**Query** Please look up its IC50: N#Cc1cnc(Nc2ccc(S(N)(=O)=O)cc2)nc1N1CCC[C@H](O)C1 [Example 69]
**Result** 100 to 1000 nM
